Cited source for all entries: the supplement of paper PMC5998384

system: HeLa Kyoto; experiment: thermal stability score vs G1/S (z-score of summed log2 fold changes over temperatures); higher = more thermally stable than in G1/S; conditions: cell cycle stage: early G1 (4.5 h after nocodazole release)
This listing pairs sequences with measured thermal stability score.
Please reply with the number alone, leaving off any unit.

Known results for sequences:
- CHAIN: "MAAACGPGAAGYCLLLGLHLFLLTAGPALGWNDPDRMLLRDVKALTLHYDRYTTSRRLDPIPQLKCVGGTAGCDSYTPKVIQCQNKGWDGYDVQWECKTDLDIAYKFGKTVVSCEGYESSEDQYVLRGSCGLEYNLDYTELGLQKLKESGKQHGFASFSDYYYKWSSADSCNMSGLITIVVLLGIAFVVYKLFLSDGQYSPPPYSEYPPFSHRYQRFTNSAGPPPPGFKSEFTGPQNTGHGATSGFGSAFTGQQGYENSGPGFWTGLGTGGILGYLFGSNRAATPFSDSWYYPSYPPSYPGTWNRAYSPLHGGSGSYSVCSNSDTKTRTASGYGGTRRR [SARAF]"
  RESULT VALUE: -0.125
- CHAIN: "MEPAEQPSELVSAEGRNRKAVLCQRCGSRVLQPGTALFSRRQLFLPSMRKKPALSDGSNPDGDLLQEHWLVEDMFIFENVGFTKDVGNIKFLVCADCEIGPIGWHCLDDKNSFYVALERVSHE [RABIF]"
  RESULT VALUE: 0.827

Next up:
Query :: If you can, please state the reported thermal stability score value of MARPLVPSSQKALLLELKGLQEEPVEGFRVTLVDEGDLYNWEVAIFGPPNTYYEGGYFKARLKFPIDYPYSPPAFRFLTKMWHPNIYETGDVCISILHPPVDDPQSGELPSERWNPTQNVRTILLSVISLLNEPNTFSPANVDASVMYRKWKESKGKDREYTDIIRKQVLGTKVDAERDGVKVPTTLAEYCVKTKAPAPDEGSDLFYDDYYEDGEVEEEADSCFGDDEDDSGTEES [CDC34] .
Result :: 0.555

---

system: HeLa Kyoto; test: solubility change mitosis vs G1/S (difference of NP-40 vs SDS log2 ratios) (log2 ratio difference); higher = more soluble in mitosis
MEASURED ATTRIBUTE: solubility change mitosis (log2)
Please reply with the number alone, leaving off any unit.

- SUBSTANCE: "MDLDVVNMFVIAGGTLAIPILAFVASFLLWPSALIRIYYWYWRRTLGMQVRYVHHEDYQFCYSFRGRPGHKPSILMLHGFSAHKDMWLSVVKFLPKNLHLVCVDMPGHEGTTRSSLDDLSIDGQVKRIHQFVECLKLNKKPFHLVGTSMGGQVAGVYAAYYPSDVSSLCLVCPAGLQYSTDNQFVQRLKELQGSAAVEKIPLIPSTPEEMSEMLQLCSYVRFKVPQQILQGLVDVRIPHNNFYRKLFLEIVSEKSRYSLHQNMDKIKVPTQIIWGKQDQVLDVSGADMLAKSIANCQVELLENCGHSVVMERPRKTAKLIIDFLASVHNTDNNKKLD [ABHD6]"
  solubility change mitosis (log2): -0.0832
- SUBSTANCE: "MSGEPELIELRELAPAGRAGKGRTRLERANALRIARGTACNPTRQLVPGRGHRFQPAGPATHTWCDLCGDFIWGVVRKGLQCARLSADCKFTCHYRCRALVCLDCCGPRDLGWEPAVERDTNVDEPVEWETPDLSQAEIEQKIKEYNAQINSNLFMSLNKDGSYTGFIKVQLKLVRPVSVPSSKKPPSLQDARRGPGRGTSVRRRTSFYLPKDAVKHLHVLSRTRAREVIEALLRKFLVVDDPRKFALFERAERHGQVYLRKLLDDEQPLRLRLLAGPSDKALSFVLKENDSGEVNWDAFSMPELHNFLRILQREEEEHLRQILQKYSYCRQKIQEALHACPLG [RASSF1]"
  solubility change mitosis (log2): 0.0429
- SUBSTANCE: "MEAVLNELVSVEDLLKFEKKFQSEKAAGSVSKSTQFEYAWCLVRSKYNDDIRKGIVLLEELLPKGSKEEQRDYVFYLAVGNYRLKEYEKALKYVRGLLQTEPQNNQAKELERLIDKAMKKDGLVGMAIVGGMALGVAGLAGLIGLAVSKSKS [FIS1]"
  solubility change mitosis (log2): 0.251
- SUBSTANCE: "MSYDRAITVFSPDGHLFQVEYAQEAVKKGSTAVGVRGRDIVVLGVEKKSVAKLQDERTVRKICALDDNVCMAFAGLTADARIVINRARVECQSHRLTVEDPVTVEYITRYIASLKQRYTQSNGRRPFGISALIVGFDFDGTPRLYQTDPSGTYHAWKANAIGRGAKSVREFLEKNYTDEAIETDDLTIKLVIKALLEVVQSGGKNIELAVMRRDQSLKILNPEEIEKYVAEIEKEKEENEKKKQKKAS [PSMA7]"
  solubility change mitosis (log2): -0.0151
- SUBSTANCE: "MKLLARALRLCEFGRQASSRRLVAGQGCVGPRRGCCAPVQVVGPRADLPPCGACITGRIMRPDDANVAGNVHGGTILKMIEEAGAIISTRHCNSQNGERCVAALARVERTDFLSPMCIGEVAHVSAEITYTSKHSVEVQVNVMSENILTGAKKLTNKATLWYVPLSLKNVDKVLEVPPVVYSRQEQEEEGRKRYEAQKLERMETKWRNGDIVQPVLNPEPNTVSYSQSSLIHLVGPSDCTLHGFVHGGVTMKLMDEVAGIVAARHCKTNIVTASVDAINFHDKIRKGCVITISGRMTFTSNKSMEIEVLVDADPVVDSSQKRYRAASAFFTYVSLSQEGRSLPVPQLVPETEDEKKRFEEGKGRYLQMKAKRQGHAEPQP [ACOT7]"
  solubility change mitosis (log2): -0.0718

Next up:
Query :: If you can, please state the reported solubility change mitosis (log2) value of `CREBBP` .
Result :: 0.0153
